Data origin, for the record: patent US20230066011A1

Recorded measurements of IC50, one per entry
# system_tested: human GST-CLK1 (Homo sapiens)
# Construct: purified human GST-CLK1 (129-end, SignalChem) enzyme; purchased SignalChem
# Sequence (P49759 129-484 limits assumed): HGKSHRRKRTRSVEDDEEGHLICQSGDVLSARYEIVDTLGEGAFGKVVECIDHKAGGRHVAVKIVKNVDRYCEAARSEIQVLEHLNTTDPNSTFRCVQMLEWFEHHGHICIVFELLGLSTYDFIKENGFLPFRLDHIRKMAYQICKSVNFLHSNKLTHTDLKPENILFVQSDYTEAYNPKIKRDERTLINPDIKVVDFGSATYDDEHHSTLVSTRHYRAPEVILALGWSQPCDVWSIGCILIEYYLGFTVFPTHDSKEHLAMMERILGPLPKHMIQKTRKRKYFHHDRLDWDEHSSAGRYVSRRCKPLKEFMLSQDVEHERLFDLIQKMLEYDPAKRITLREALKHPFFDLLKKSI
# test_description: GST-CLK1 enzyme inhibition, ADP-Glo kinase assay
# Type: biochemical
# test_context: ATP 10 μM, GST-CLK1 129-end
measured_property: IC50

[[record]]
compound = "COc1cc(P2(=O)CCN(C3COC3)CC2)ccc1Nc1nc(NCC2CC2)c2c(C#N)c[nH]c2n1"
observed = "< 100 nM"

[[record]]
compound = "CCCNc1nc(Nc2ccc(C(=O)N3CCOCC3)c3c2OCC3)nc2[nH]cc(C#N)c12"
observed = "< 100 nM"

[[record]]
compound = "COc1cc(P2(=O)CCN(C3CC3)CC2)ccc1Nc1nc(NC2CCC2)c2c(C(F)(F)F)c[nH]c2n1"
observed = "101 to 300 nM"

[[record]]
compound = "COc1cc(S(C)(=O)=O)ccc1Nc1nc(NC2CCC2)c2c(C(F)(F)F)c[nH]c2n1"
observed = "101 to 300 nM"

[[record]]
compound = "COc1cc(S(=O)(=O)N2CCOCC2)ccc1Nc1nc(NC2CCCC2)c2cc[nH]c2n1 [Example 25, 2,2,2-trifluoroacetate]"
observed = "301 to 1000 nM"

[[record]]
compound = "CC[C@H](C)Nc1nc(Nc2ccc(C(=O)N3CCOCC3)c3c2OCC3)nc2[nH]cc(C#N)c12"
observed = "301 to 1000 nM"

[[record]]
compound = "COc1cc(S(=O)(=O)N2CCC(N3CCOCC3)CC2)ccc1Nc1nc(N[C@H]2CCOC2)c2cc[nH]c2n1"
observed = "301 to 1000 nM"


---

# Tested on: MDA-MB-468 cell line
# test_description: Inhibition of proliferation of MDA-MB-468 cancer cells (Cell Titer-Glo)
# Assay type: cell-based
# test_context: Homo sapiens, MDA-MB-468, 72 hours
# Experimental: To evaluate an inhibitory effect on the proliferation of cancer cells, each of an MDA-MB-231 cell line (Korean Cell Line Bank #30026) and an MDA-MB-468 cell line as triple-negative breast cancer cell lines, and SHP-77 (ATCC #CRL-2195) as a small-cell lung cancer cell line was cultured in DMEM (HyClone #SH30243) or an RPMI medium (HyClone #SH3027.01) to analyze a cell growth rate. […] Then, a degree of luminescence was measured using a microplate reader. […]
measured_property: GI50

[[record]]
input_smiles = "COc1cc(P2(=O)CCN(C3CC3)CC2)ccc1Nc1nc(NC2CCCC2)c2cc[nH]c2n1"
measured_property = "GI50"
observed = "301 to 1000 nM"

[[record]]
input_smiles = "CCNc1nc(Nc2ccc(S(=O)(=O)N3CCC(N4CCOCC4)CC3)c3c2OCCO3)nc2[nH]cc(C(F)(F)F)c12"
measured_property = "GI50"
observed = "301 to 1000 nM"

[[record]]
input_smiles = "N#Cc1c[nH]c2nc(Nc3ccc(C(=O)N4CCCC4)c4c3OCCO4)nc(NC3CCCCC3)c12"
measured_property = "GI50"
observed = "51 to 100 nM"

[[record]]
input_smiles = "COCCNc1nc(Nc2ccc(S(=O)(=O)N3CCOCC3)cc2OC)nc2[nH]cc(C(F)(F)F)c12"
measured_property = "GI50"
observed = "301 to 1000 nM"

[[record]]
input_smiles = "CCCNc1nc(Nc2ccc(C(=O)N3CCC(N4CCOCC4)CC3)c3c2OCC3)nc2[nH]cc(C(F)(F)F)c12"
measured_property = "GI50"
observed = "301 to 1000 nM"

[[record]]
input_smiles = "CCCNc1nc(Nc2ccc(S(=O)(=O)N3CCC(N4CCOCC4)CC3)cc2OC)nc2[nH]cc(C#N)c12"
measured_property = "GI50"
observed = "< 50 nM"

[[record]]
input_smiles = "C=CCNc1nc(Nc2ccc(S(=O)(=O)N3CCC(N4CCOCC4)CC3)cc2OC)nc2[nH]cc(C#N)c12"
measured_property = "GI50"
observed = "< 50 nM"

[[record]]
input_smiles = "COc1cc(S(=O)(=O)N2CCC(N3CCOCC3)CC2)ccc1Nc1nc(C2CC2)c2c(C#N)c[nH]c2n1"
measured_property = "GI50"
observed = "< 50 nM"

[[record]]
input_smiles = "N#Cc1c[nH]c2nc(Nc3ccc(C(=O)N4CCOCC4)c4c3OCC4)nc(NC3CCCCC3)c12"
measured_property = "GI50"
observed = "< 50 nM"

[[record]]
input_smiles = "O=C(c1ccc(Nc2nc(NC3CCCC3)c3c(C(F)(F)F)c[nH]c3n2)c2c1OCCO2)N1CCN(C2COC2)CC1"
measured_property = "GI50"
observed = "101 to 300 nM"

[[record]]
input_smiles = "CCNc1nc(Nc2cc(F)c(S(=O)(=O)N3CCC(N4CCOCC4)CC3)cc2OC)nc2[nH]cc(C(F)(F)F)c12"
measured_property = "GI50"
observed = "301 to 1000 nM"

[[record]]
input_smiles = "O=C(c1ccc(Nc2nc(C3CC3)c3c(C(F)(F)F)c[nH]c3n2)c2c1OCCO2)N1CCC(N2CCOCC2)CC1"
measured_property = "GI50"
observed = "301 to 1000 nM"

[[record]]
input_smiles = "CC[C@H](C)Nc1nc(Nc2ccc(S(=O)(=O)N3CCC(N4CCOCC4)CC3)cc2OC)nc2[nH]cc(C#N)c12"
measured_property = "GI50"
observed = "51 to 100 nM"

[[record]]
input_smiles = "O=C(c1ccc(Nc2nc(NC3CCCCC3)c3c(C(F)(F)F)c[nH]c3n2)c2c1OCCO2)N1CCN(C2COC2)CC1"
measured_property = "GI50"
observed = "101 to 300 nM"

[[record]]
input_smiles = "CCN1CCP(=O)(c2ccc(Nc3nc(NC4CCCCC4)c4c(C#N)c[nH]c4n3)c(OC)c2)CC1"
measured_property = "GI50"
observed = "51 to 100 nM"

[[record]]
input_smiles = "COCCNc1nc(Nc2ccc(P3(=O)CCN(C4CCOCC4)CC3)cc2OC)nc2[nH]cc(C(F)(F)F)c12"
measured_property = "GI50"
observed = "301 to 1000 nM"

[[record]]
input_smiles = "COc1cc(S(=O)(=O)N2CCC(N3CCOCC3)CC2)ccc1Nc1nc(NCC2CCCC2)c2c(C#N)c[nH]c2n1"
measured_property = "GI50"
observed = "101 to 300 nM"

[[record]]
input_smiles = "N#Cc1c[nH]c2nc(Nc3ccc(C(=O)N4CCOCC4)c4c3OCO4)nc(NC3CCCCC3)c12"
measured_property = "GI50"
observed = "51 to 100 nM"

[[record]]
input_smiles = "O=C(c1ccc(Nc2nc(NC3CCCC3)c3cc[nH]c3n2)c2c1CCO2)N1CCC(N2CCOCC2)CC1"
measured_property = "GI50"
observed = "301 to 1000 nM"

[[record]]
input_smiles = "CNc1nc(Nc2cc(F)c(S(=O)(=O)N3CCC(N4CCOCC4)CC3)cc2OC)nc2[nH]cc(C(F)(F)F)c12"
measured_property = "GI50"
observed = "301 to 1000 nM"

[[record]]
input_smiles = "COc1cc(S(=O)(=O)N2CCOCC2)ccc1Nc1nc(C2CC2)c2c(C#N)c[nH]c2n1"
measured_property = "GI50"
observed = "301 to 1000 nM"

[[record]]
input_smiles = "N#Cc1c[nH]c2nc(Nc3ccc(C(=O)N4CCN(C5CC5)CC4)c4c3OCCO4)nc(NC3CCCC3)c12"
measured_property = "GI50"
observed = "101 to 300 nM"

[[record]]
input_smiles = "COc1cc(S(=O)(=O)N2CCOCC2)ccc1Nc1nc(N[C@H]2CCOC2)c2c(C(F)(F)F)c[nH]c2n1"
measured_property = "GI50"
observed = "301 to 1000 nM"

[[record]]
input_smiles = "COCCNc1nc(Nc2ccc(P3(=O)CCN(C4CC4)CC3)cc2OC)nc2[nH]cc(C(F)(F)F)c12"
measured_property = "GI50"
observed = "301 to 1000 nM"

[[record]]
input_smiles = "N#Cc1c[nH]c2nc(Nc3ccc(C(=O)N4CCOCC4)c4c3OCCO4)nc(C3CC3)c12"
measured_property = "GI50"
observed = "101 to 300 nM"

[[record]]
input_smiles = "O=C(c1ccc(Nc2nc(NC3CC3)c3c(C(F)(F)F)c[nH]c3n2)c2c1CCO2)N1CCC(N2CCOCC2)CC1"
measured_property = "GI50"
observed = "301 to 1000 nM"

[[record]]
input_smiles = "C=CCNc1nc(Nc2ccc(S(=O)(=O)N3CCC(N4CCOCC4)CC3)cc2OC)nc2[nH]cc(C(F)(F)F)c12"
measured_property = "GI50"
observed = "101 to 300 nM"

[[record]]
input_smiles = "COCCNc1nc(Nc2ccc(S(=O)(=O)N3CCC(N4CCOCC4)CC3)cc2OC)nc2[nH]cc(C#N)c12"
measured_property = "GI50"
observed = "< 50 nM"

[[record]]
input_smiles = "N#Cc1c[nH]c2nc(Nc3ccc(C(=O)N4CCOCC4)c4c3OCCO4)nc(NC3CCCC3)c12"
measured_property = "GI50"
observed = "51 to 100 nM"

